reported endpoint: pKi
The quantity pKi is defined as the negative base-10 logarithm of the molar concentration.

Ask: Reported pKi for Neuronal acetylcholine receptor subunit alpha-4 (Rattus norvegicus), given Clc1ccc(OC[C@@H]2CCN2)cn1 ?
Reply: 10.52

These entries and their values trace back to BindingDB's records for doi:10.1126/science.279.5347.77.
